All figures here come from ChEMBL document CHEMBL2062454.

biological target: Phosphatidylinositol 4,5-bisphosphate 3-kinase catalytic subunit gamma isoform (Homo sapiens, UniProt P48736); assay: Inhibition of PI3Kgamma assessed as inhibition of C5a-induced AKT phosphorylation at Ser473 by cell based assay
Sequence (P48736 whole entry, canonical isoform): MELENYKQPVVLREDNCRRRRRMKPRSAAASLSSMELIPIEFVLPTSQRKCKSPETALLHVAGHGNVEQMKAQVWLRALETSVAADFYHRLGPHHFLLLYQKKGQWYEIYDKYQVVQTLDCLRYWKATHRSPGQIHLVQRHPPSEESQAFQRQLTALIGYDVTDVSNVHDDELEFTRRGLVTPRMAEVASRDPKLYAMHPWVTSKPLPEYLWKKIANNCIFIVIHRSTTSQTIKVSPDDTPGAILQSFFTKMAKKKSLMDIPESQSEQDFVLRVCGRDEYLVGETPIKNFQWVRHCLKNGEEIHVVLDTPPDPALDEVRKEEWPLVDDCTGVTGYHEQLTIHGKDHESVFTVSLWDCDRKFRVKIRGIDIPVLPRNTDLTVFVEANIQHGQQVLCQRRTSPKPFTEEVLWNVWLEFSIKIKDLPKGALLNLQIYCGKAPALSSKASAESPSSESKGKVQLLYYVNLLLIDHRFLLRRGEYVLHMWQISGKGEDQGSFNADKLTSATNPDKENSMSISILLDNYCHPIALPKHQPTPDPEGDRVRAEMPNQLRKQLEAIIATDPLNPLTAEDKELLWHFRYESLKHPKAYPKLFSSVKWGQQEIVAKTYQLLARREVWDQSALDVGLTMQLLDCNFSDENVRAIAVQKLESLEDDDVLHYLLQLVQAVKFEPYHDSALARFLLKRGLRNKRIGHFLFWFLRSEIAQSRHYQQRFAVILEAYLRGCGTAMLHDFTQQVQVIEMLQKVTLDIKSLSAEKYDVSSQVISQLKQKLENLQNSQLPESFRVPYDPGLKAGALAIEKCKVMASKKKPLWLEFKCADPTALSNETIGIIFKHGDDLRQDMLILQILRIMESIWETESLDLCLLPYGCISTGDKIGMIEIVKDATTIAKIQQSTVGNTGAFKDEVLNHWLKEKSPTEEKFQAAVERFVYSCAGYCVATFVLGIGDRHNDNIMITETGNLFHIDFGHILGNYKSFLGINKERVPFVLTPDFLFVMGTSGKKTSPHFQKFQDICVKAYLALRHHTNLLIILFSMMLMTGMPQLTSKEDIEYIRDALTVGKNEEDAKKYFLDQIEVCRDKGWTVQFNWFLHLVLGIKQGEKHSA
Measured Parameter: IC50

Ask: Recorded IC50 of CC(=O)Nc1nc2ccc(-c3cccc(S(C)(=O)=O)c3)cn2n1 , please.
Result: > 12.6 µM

Ask: Follow-up entry: CC(C)(C)S(=O)(=O)c1cncc(-c2ccc3nc(N)nn3c2)c1
Result: > 10 µM

Ask: Follow-up entry: Nc1nc2ccc(-c3cncc(S(=O)(=O)Nc4ccc(Cl)cc4)c3)cn2n1
Result: > 12.6 µM

====

Record form. Attribute: IC50. Fill in for each entry.
molecular target: Phosphatidylinositol 4,5-bisphosphate 3-kinase catalytic subunit alpha isoform (Homo sapiens); experiment: Inhibition of PI3Kalpha by high throughput chemoproteomics binding assay
Sequence (P42336 whole entry, canonical isoform): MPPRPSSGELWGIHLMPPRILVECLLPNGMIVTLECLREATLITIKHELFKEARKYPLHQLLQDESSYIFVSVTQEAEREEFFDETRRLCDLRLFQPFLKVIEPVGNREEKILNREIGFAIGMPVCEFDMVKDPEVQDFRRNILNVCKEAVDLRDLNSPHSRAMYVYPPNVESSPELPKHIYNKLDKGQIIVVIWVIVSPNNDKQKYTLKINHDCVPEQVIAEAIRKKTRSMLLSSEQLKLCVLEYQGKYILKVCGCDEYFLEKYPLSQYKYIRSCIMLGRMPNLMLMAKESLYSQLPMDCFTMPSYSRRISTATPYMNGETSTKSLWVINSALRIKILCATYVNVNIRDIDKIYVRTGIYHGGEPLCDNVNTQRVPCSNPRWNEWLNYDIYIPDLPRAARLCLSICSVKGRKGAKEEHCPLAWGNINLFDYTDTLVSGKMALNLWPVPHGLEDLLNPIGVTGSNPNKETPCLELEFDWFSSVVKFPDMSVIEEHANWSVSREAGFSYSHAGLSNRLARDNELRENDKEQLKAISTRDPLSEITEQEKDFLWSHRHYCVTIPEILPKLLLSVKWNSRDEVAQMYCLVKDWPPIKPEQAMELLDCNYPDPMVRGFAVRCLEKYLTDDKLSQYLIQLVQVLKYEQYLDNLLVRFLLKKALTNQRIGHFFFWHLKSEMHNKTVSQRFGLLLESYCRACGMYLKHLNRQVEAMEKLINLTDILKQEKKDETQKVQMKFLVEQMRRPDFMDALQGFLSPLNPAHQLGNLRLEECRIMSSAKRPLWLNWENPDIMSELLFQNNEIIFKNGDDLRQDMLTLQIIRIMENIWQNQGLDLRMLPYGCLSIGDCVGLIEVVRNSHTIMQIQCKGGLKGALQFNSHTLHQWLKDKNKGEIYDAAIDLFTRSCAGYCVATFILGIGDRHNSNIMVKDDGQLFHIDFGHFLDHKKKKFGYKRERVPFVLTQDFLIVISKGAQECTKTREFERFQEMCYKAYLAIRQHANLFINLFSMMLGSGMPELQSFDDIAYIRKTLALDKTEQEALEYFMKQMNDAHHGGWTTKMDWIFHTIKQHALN

Ask: Recorded IC50 of CC(=O)N(C)c1nc2ccc(-c3cccc(S(C)(=O)=O)c3)cn2n1 , please.
Result: > 100 µM

Ask: Follow-up entry: CC(=O)Nc1nc2ccc(-c3cncc(S(C)(=O)=O)c3)c(C)n2n1
Result: > 100 µM

Ask: Follow-up entry: COc1ccc(-c2ccc3nc(NC(C)=O)nn3c2)cc1S(=O)(=O)NCc1ccccc1
Result: > 100 µM
